Cited source: patent US4371545A

# experimental protocol: Acute toxicity (Litchfield and Wilcoxon)
# run conditions: rat, in vivo, iv, female
readout type: LD50

compound	result
Cc1ccc([N+](=O)[O-])c(OCC(O)CNC(C)C)c1.Cl (stereo not shown)	68.9 mg/kg

* * *

# experimental protocol: Acute toxicity (Litchfield and Wilcoxon)
# run conditions: rat, in vivo, po, female and male

compound	LD50
Cc1ccc([N+](=O)[O-])c(OCC(O)CNC(C)C)c1.Cl (stereo not shown) [Compound of the invention]	1120 mg/kg

* * *

# experimental protocol: Acute toxicity (Litchfield and Wilcoxon)
# run conditions: rat, in vivo, ip, female and male
readout type: LD50 (mg/kg)

compound	readout number
Cc1ccc([N+](=O)[O-])c(OCC(O)CNC(C)C)c1.Cl (stereo not shown) [Compound of the invention]	192

* * *

# experimental protocol: Acute toxicity (Litchfield and Wilcoxon)
# run conditions: in vivo, iv; mouse, female and male, in each case 10 female and male mice

compound	unit tag	LD50
Cc1ccc([N+](=O)[O-])c(OCC(O)CNC(C)C)c1.Cl (stereo not shown)	mg/kg	105
